Source: ChEMBL document CHEMBL1140154

The next entries give measured pKi for Glutamate receptor 4 (Rattus norvegicus).
Scale: pKi equals -log10([C]), with [C] in mol/L.

What measured pKi is associated with N[C@@H](Cn1cc(Cl)c(=O)[nH]c1=O)C(=O)O on Glutamate receptor 4 (Rattus norvegicus)?
6.25

What measured pKi is associated with N[C@@H](Cn1cc(I)c(=O)[nH]c1=O)C(=O)O on Glutamate receptor 4 (Rattus norvegicus)?
6.13

What measured pKi is associated with C=C(C)[C@H]1CN[C@H](C(=O)O)[C@H]1CC(=O)O [KAINIC ACID] on Glutamate receptor 4 (Rattus norvegicus)?
5.45

What measured pKi is associated with NC(Cn1cc(Br)c(=O)[nH]c1=O)C(=O)O (racemic) on Glutamate receptor 4 (Rattus norvegicus)?
6.18

What measured pKi is associated with CC1(C)Cc2c(n(C[C@H](N)C(=O)O)c(=O)[nH]c2=O)C1 on Glutamate receptor 4 (Rattus norvegicus)?
5.80

What measured pKi is associated with N[C@@H](Cn1c2c(c(=O)[nH]c1=O)CSC2)C(=O)O on Glutamate receptor 4 (Rattus norvegicus)?
6.54

What measured pKi is associated with N[C@@H](Cn1c(=O)[nH]c(=O)c2sccc21)C(=O)O on Glutamate receptor 4 (Rattus norvegicus)?
6.09

What measured pKi is associated with N[C@@H](Cn1cc(F)c(=O)[nH]c1=O)C(=O)O on Glutamate receptor 4 (Rattus norvegicus)?
6.91
